EXPERIMENT: Viability qHTS for spleen associated tyrosine kinase inhibitor (SYKi) drug resistant MV4-11 cells (AID 1963824); further: nearly all actives have a fitted effect of over 35% in size
CONDITION DETAILS: SYKi-resistant MV4-11 viability, CellTiter-Glo, 72 h; series mostly up to 45 µM
Results filed as inconclusive are left out. The source made the active and inactive calls. The call rests on the fitted dose curve; in most records, active means well fitted cell-killing curve with a large enough effect; inconclusive means small, poorly fitted or top-dose-only effect, or effect the other way; inactive means no such curve, though single readings can be large or run the other way.
Possible outcomes: true (1) = active, false (0) = inactive

{"columns": ["COMPOUND", "CAT"],
 "data": [
  ["O=c1[nH]cnc2c1ncn2[C@@H]1O[C@H](CO)[C@@H](O)[C@H]1O", "false (0)"],
  ["Cc1nc(Nc2n[nH]c3c2CN(C(=O)NC(CN(C)C)c2ccccc2)C3(C)C)c2sccc2n1 (stereo not drawn)", "true (1)"],
  ["Cc1cnc(NC(=O)C2=C(O)c3ccccc3S(=O)(=O)N2C)s1", "false (0)"],
  ["C[C@H]1CC[C@@]2(OC1)O[C@H]1CC3C4CC[C@H]5C[C@@H](O)CC[C@]5(C)C4CC(=O)[C@]3(C)[C@H]1[C@@H]2C (stereo partly drawn)", "false (0)"],
  ["CC1C2=CC(=O)OC2(O)CC2C1CCC1C(C)(C)CCC(O)C21C (stereo not drawn)", "true (1)"],
  ["CC(=O)NC1=NN(C(C)=O)C(C)(c2ccccc2)S1 (stereo not drawn)", "true (1)"],
  ["C=CC(=O)Nc1cccc(C)c1Nc1ncc2cc(-c3c(Cl)c(OC)cc(OC)c3Cl)ccc2n1", "true (1)"],
  ["C=C(C(=O)O)C1CCC2(C)CCCC(C)(O)C2C1 (stereo not drawn)", "false (0)"],
  ["C[N+]1(C)[C@@H]2CC(OC(=O)[C@H](CO)c3ccccc3)C[C@H]1[C@@H]1O[C@@H]12 (stereo partly drawn)", "false (0)"],
  ["COC(=O)C1=COC(OC2OC(CO)C(O)C(O)C2O)C2C(C)CC(=O)C12O (stereo not drawn)", "false (0)"],
  ["Nc1ncnc2c1c(-c1cccc(OCc3ccccc3)c1)cn2C1CC(CN2CCCC2)C1 (stereo not drawn)", "true (1)"],
  ["CCC(=O)c1cc(-c2ccc(Cl)cc2)n(-c2ccc(S(N)(=O)=O)cc2)c1C", "true (1)"],
  ["Nc1c(I)cc(I)c(C(=O)N(CCC(=O)O)c2ccccc2)c1I", "false (0)"],
  ["CC[C@H]1OC(=O)[C@H](C)[C@@H](O[C@H]2C[C@@](C)(OC)[C@@H](O)[C@H](C)O2)[C@H](C)[C@@H](O[C@@H]2O[C@H](C)C[C@H](N(C)C)[C@H]2O)[C@@](C)(O)C[C@@H](C)[C@@H]2N[C@@H](COCCOC)OC([C@H]2C)[C@]1(C)O", "false (0)"],
  ["CNC(C)C(=O)NC(C(=O)N1CCCC1C(=O)Nc1cccc2ncccc12)C(C)C (stereo not drawn)", "true (1)"],
  ["CN1CCN(c2ccc3nc(-c4cc(C(C)(C)C)c(OCCCC(=O)NCCCN=[N+]=[N-])c(C(C)(C)C)c4)[nH]c3c2)CC1", "true (1)"],
  ["Cn1c(=O)c(F)c(Nc2ccc(I)cc2F)c2c(=O)n(C[C@@H](O)CO)cnc21", "true (1)"],
  ["O=C(Cn1c2ccccc2c2nc3n(c(=O)c21)CCS3)N1CCCC1", "false (0)"]
]}

###

EXPERIMENT: Viability qHTS for spleen associated tyrosine kinase inhibitor (SYKi) naive MV4-11 cells (AID 1963823); further: nearly all actives have a fitted effect of over 40% in size
CONDITION DETAILS: MV4-11 AML viability, CellTiter-Glo luminescence, 72 h; series mostly up to 45 µM
Inconclusive results are not listed. Active and inactive are the calls of the source. The call rests on the fitted dose curve; in most records, active means well fitted cell-killing curve with a large enough effect; inconclusive means small, poorly fitted or top-dose-only effect, or effect the other way; inactive means no such curve, though single readings can be large or run the other way.
Labels: Y = active, N = inactive

{"columns": ["MOLECULE", "CAT"],
 "data": [
  ["COC(=O)C1=CO[C@@H](O[C@@H]2O[C@H](CO)[C@@H](O)[C@H](O)[C@H]2O)[C@@H]2[C@@H](CO)[C@@H](O)C(O)[C@H]12 (some centres undefined)", "N"],
  ["O=C1CC[C@@H](C(=O)O)N1", "Y"],
  ["CC1=CC(=O)CC(C)(C)[C@@]1(O)/C=C/C(C)O[C@@H]1O[C@H](CO)[C@@H](O)[C@H](O)[C@H]1O (some centres undefined)", "N"],
  ["CCCC(CCC)C(=O)O", "N"],
  ["CC(=O)O[C@@H]1[C@@H](CO)O[C@@](CO)(O[C@H]2O[C@H](COC(=O)/C=C/c3ccccc3)[C@@H](O)[C@H](O)[C@H]2O)[C@H]1O", "N"],
  ["CCCc1cc(C(N)=S)ccn1", "N"],
  ["CC1(C)C2CCC(CO[C@@H]3O[C@H](CO[C@@H]4OC[C@](O)(CO)[C@H]4O)[C@@H](O)[C@H](O)[C@H]3O)C1C2 (some centres undefined)", "N"],
  ["O=C(O)c1cc(-c2c(-c3ccccc3)nn3ccccc23)n[nH]c1=O", "N"],
  ["O=C(Nc1ccc(S(=O)(=O)C(F)(F)F)cc1)C1=CCN(c2ncccc2C(F)(F)F)CC1", "Y"]
]}

###

EXPERIMENT: Cellular viability qHTS for adrenocortical cancer (ACC) cell line SW-13 (AID 1963989);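 further: cells grown in serum-free medium with ITS supplement; on the % scale 0 is the no-effect control and ±100 the full control effect; nearly all actives have a fitted effect of over 65% in size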
CONDITION DETAILS: SW-13 ACC cells viability, CellTiter-Glo, 48 h; stronger effect = lower value
Results filed as inconclusive are left out.

{"columns": ["COMPOUND", "activity (max response) (%)"],
 "data": [
  ["COc1cc2nccc(Oc3ccc(NC(=O)NC4CC4)c(Cl)c3)c2cc1C(N)=O", 3.51],
  ["CNc1nc(Nc2ccc(C(=O)N3CCOCC3)cc2OC)ncc1Cl", -6.87],
  ["CNC(=O)c1ccc(N2C(=S)N(c3cnc(C#N)c(C(F)(F)F)c3)C(=O)C23CCC3)cc1F", 4.43],
  ["O=c1c(-c2ccc(O)cc2)coc2c([C@@H]3O[C@H](CO)[C@@H](O)[C@H](O)[C@H]3O)c(O)ccc12", 3.16],
  ["O=Cc1ccccc1C=O", 0.792],
  ["C=C[C@H]1CN2CCC1C[C@@H]2C(O)c1ccnc2ccc(OC)cc12 (stereo partly specified)", 3.34],
  ["CNS(=O)(=O)CCc1ccc2[nH]cc(C3CCN(C)CC3)c2c1", -14.7],
  ["COCCCc1sc(-c2ccccc2)nc1C(=O)Nc1ccccc1-c1nc2cc(CN3CCCC3)cnc2s1", -19.6],
  ["N#CC1(c2ccc(NC(=O)c3cccnc3NCc3ccncc3)cc2)CCCC1", -5.11],
  ["Nc1ncnc2c1C(=O)N(c1ccc(C3CCC(CC(=O)O)CC3)cc1)CCO2 (stereo unspecified)", 10.6],
  ["OC[C@H]1O[C@@H](OCCc2ccc(O)cc2)[C@H](O)[C@@H](O)[C@H]1O", -16.3],
  ["O=C(O)CCC(=O)c1ccc(-c2ccccc2)cc1", 23],
  ["COC(=O)c1ccc(O)cc1", 11.5],
  ["Cc1cnc(-c2cc(N3CCN(C(=O)CCS(C)(=O)=O)CC3)ncc2Cl)c(C)c1", -0.258],
  ["C[C@]12CC[C@@H]3c4ccc(O)cc4CC[C@H]3[C@@H]1CCC2=O", -14.1],
  ["CN[C@@H](C)C(=O)N[C@H]1CN(C(=O)CC(C)C)CC[C@H]2CC[C@@H](C(=O)NC(c3ccccc3)c3ccccc3)N2C1=O", -12.1],
  ["CC(NC(CCc1ccccc1)C(=O)O)C(=O)N1C(=O)N(C)CC1C(=O)O (stereo unspecified)", 6.3],
  ["N#CC[C@H](C1CCCC1)n1cc(-c2ncnc3[nH]ccc23)cn1", -17.5],
  ["O=C(c1cncc(Br)c1)N1CCC(N2CCCC2)CC1", 1.51],
  ["C=C[C@H]1CN2CC[C@H]1C[C@H]2[C@H](O)c1ccnc2ccc(OC)cc12", -6.74],
  ["Cc1ncc([N+](=O)[O-])n1CC(O)CCl (stereo unspecified)", -4.94]
]}

###

EXPERIMENT: Quantitative highthroughput screen to assess conditional lethalithy of SEM cells grown in RPMI1640 with dialyzed fetal bovine serum (RPMI+ds) (AID 1963884); further: nearly all actives have a fitted effect of over 35% in size; further: potency means the concentration at half of the fitted maximal effect;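 on viability: 100% = DMSO control wells and 0% = empty wells without cells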
CONDITION DETAILS: SEM B-ALL cells, RPMI+dialyzed FBS, CellTiter-Glo viability, 48 h; series mostly up to 45.8 µM
Protocol: Assay Provider: Jason Cantor Ph.D. Department of Biochemistry University of Wisconsin-Madison, Madison, WI, USA Chemical screening studies have identified drug sensitivities across hundreds of cancer cell lines but most putative therapeutics fail to translate. […] Sets of conditional anticancer compounds spanned phases of clinical development and included non-oncology drugs were assessed. […] 6; Detection; Luminescence, Viewlux PerkinElmer. […]
Results filed as inconclusive are left out. Active and inactive are the calls of the source. The call rests on the fitted dose curve; in most records, active means well fitted cell-killing curve with a large enough effect; inconclusive means small, poorly fitted or top-dose-only effect, or effect the other way; inactive means no such curve, though single readings can be large or run the other way.
OBSERVABLE: Potency

{"columns": ["COMPOUND", "OBSERVABLE", "DATA VALUE"],
 "data": [
  ["C[C@H]1Oc2cc(cnc2N)-c2c(nn(C)c2C#N)CN(C)C(=O)c2ccc(F)cc21", "Potency", "inactive"],
  ["COc1c(O)cc2c(c1O)[C@@H]1O[C@H](CO)[C@@H](O)[C@H](O)[C@H]1OC2=O", "Potency", "18.7 µM (active)"],
  ["COc1cc(C)c(Sc2cnc(NC(=O)c3ccc(CNC(C)C(C)(C)C)cc3)s2)cc1C(=O)N1CCN(C(C)=O)CC1 (centres undefined)", "Potency", "3.32 µM (active)"],
  ["CC(C)c1cnn2c(NCc3ccccc3)cc(N[C@@H](CO)[C@H](O)CO)nc12", "Potency", "0.743 µM (active)"],
  ["COc1cc2c(c(OC)c1OC)-c1ccc(OC)c(=O)cc1[C@@H](NC(C)=O)CC2", "Potency", "inactive"],
  ["CCCCOc1ccc(C(=O)Nc2ccc(F)cc2F)cc1", "Potency", "inactive"],
  ["COc1cccc(OC)c1-c1cc(C(=O)NC2(C(=O)O)C3CC4CC(C3)CC2C4)nn1-c1ccnc2cc(Cl)ccc12 (centres undefined)", "Potency", "inactive"],
  ["CCCCCN(CCC12CC3CC(CC(C3)C1)C2)C(=O)NCCCc1ccncc1", "Potency", "inactive"],
  ["CCC(C)(C)c1ccc(CC(C)CN2C[C@@H](C)O[C@@H](C)C2)cc1 (some centres undefined)", "Potency", "inactive"]
]}
